Data origin, for the record: the Human Domainome abundance scans (Beltran et al. 2025)

B1: Dystrobrevin alpha, residues 235 to 294; numbered along this chain, Q9Y4J8 (parent)
chain: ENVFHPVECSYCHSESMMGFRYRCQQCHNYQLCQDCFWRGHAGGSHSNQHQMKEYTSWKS

- Variants of: B1
- MEASUREMENT_PROTOCOL: abundance fitness (aPCA) (normalised: wild type 0, dead -1); higher = more abundant; growth selection in yeast, the domain comes from the species named
- TEST_CONTEXT: Homo sapiens
Answer no (0) if abundance fitness is under -0.01, and yes (1) if it is -0.01 or more.

[[record]]
variant_designation = "H50N"
answer_label = "no (0)"

[[record]]
variant_designation = "F37D"
answer_label = "no (0)"

[[record]]
variant_designation = "H5K"
answer_label = "no (0)"

[[record]]
variant_designation = "L32D"
answer_label = "no (0)"

[[record]]
variant_designation = "H50F"
answer_label = "no (0)"

[[record]]
variant_designation = "C12L"
answer_label = "no (0)"

[[record]]
variant_designation = "R39D"
answer_label = "no (0)"

[[record]]
variant_designation = "G19S"
answer_label = "yes (1)"

[[record]]
variant_designation = "F37V"
answer_label = "no (0)"

[[record]]
variant_designation = "S57E"
answer_label = "yes (1)"

[[record]]
variant_designation = "W38H"
answer_label = "yes (1)"

[[record]]
variant_designation = "E15I"
answer_label = "yes (1)"

[[record]]
variant_designation = "R23W"
answer_label = "no (0)"

[[record]]
variant_designation = "Q31I"
answer_label = "no (0)"

[[record]]
variant_designation = "S45L"
answer_label = "no (0)"

[[record]]
variant_designation = "H5E"
answer_label = "yes (1)"

[[record]]
variant_designation = "T56C"
answer_label = "yes (1)"

[[record]]
variant_designation = "S57A"
answer_label = "yes (1)"

[[record]]
variant_designation = "Q26R"
answer_label = "no (0)"

[[record]]
variant_designation = "S47F"
answer_label = "no (0)"

[[record]]
variant_designation = "V7T"
answer_label = "no (0)"

[[record]]
variant_designation = "H41M"
answer_label = "no (0)"

